Reported CC50 at 48 h values for the following molecules.
Experiment: Cytotoxicity assay (CellTiter Glo) on hepatocarcinoma cells
Assay type: cell-based
Conditions: human, Huh7 hepatocarcinoma cells; pyrimidines and pyridines; Huh7 hepatocarcinoma; read out at 48 h; mean ± SD
Method: […] The cytotoxicity of all investigated compounds was assayed in all cells lines as previously described. […] Cell viability was calculated using the CellTiter Glo 2.0 kit (Promega, Madison, WI, USA) and luminescence values signal obtained from cells treated with serial dilution of the compounds were measured through the GloMax® Discover Multi mode Microplate Reader (Promega) and elaborated with GraphPad PRISM software version 9.0 (La Jolla, San Diego, CA, USA). […]
Lab note: write values as number then unit, every time.

molecule="Cc1cccc(/C=N/Nc2cc(Nc3ccc(F)cc3)nc(N3CCOCC3)c2)c1 [Compound 38b]" recorded_measurement="9 µM"
molecule="Cc1cccc(/C=N/Nc2cc(N3CCOCC3)nc(N3CCOCC3)c2)c1 [Compound 27b]" recorded_measurement="39 µM"
molecule="Oc1ccccc1/C=N/Nc1cc(N2CCOCC2)nc(N2CCOCC2)n1 [Compound 14a]" recorded_measurement="82 µM"
molecule="Cc1cccc(/C=N/Nc2cc(Nc3ccc(F)cc3)nc(Nc3ccc(F)cc3)n2)c1 [Compound 19b]" recorded_measurement="6 µM"
molecule="Oc1ccccc1/C=N/Nc1cc(Nc2ccc(F)cc2)nc(N2CCOCC2)c1 [Compound 38a]" recorded_measurement="24 µM"

Lookup result for Cc1cccc(/C=N/Nc2cc(Nc3ccc(F)cc3)nc(Nc3ccc(F)cc3)c2)c1 [Compound 33b] ; measured CC50 at 48 h: 21 µM

Lookup result for Oc1ccccc1/C=N/Nc1cc(N2CCOCC2)nc(N2CCOCC2)c1 [Compound 27a] ; measured CC50 at 48 h: 44 µM

Lookup result for Cc1cccc(/C=N/Nc2cc(Nc3ccc(F)cc3)nc(N3CCOCC3)n2)c1 [Compound 21b] ; measured CC50 at 48 h: 67 µM

====

assay: Cytotoxicity assay (CellTiter Glo) on normal fibroblasts; assay type: cell-based, human; conditions: human, FB789 normal fibroblast cells, triazines 1-9, read-out 48 h, Cell-Titer Glo
Reported CC50 at 48 h values for the following molecules.
Your answer is read as µM, so omit the unit and give the number.

Illustrative cases are given below, each with its answer.
molecule="Cc1cccc(/C=N/Nc2nc(Nc3ccc(F)cc3)nc(Nc3ccc(F)cc3)n2)c1 [Compound 9]" reading_unit=µM recorded_measurement=50
molecule="CC(=O)Nc1ccc(/C=N/Nc2nc(Nc3ccc(F)cc3)nc(Nc3ccc(F)cc3)n2)cc1 [Compound 8]" reading_unit=µM recorded_measurement=57
molecule="Cc1cccc(/C=N/Nc2nc(Nc3ccc(F)cc3)nc(N3CCOCC3)n2)c1 [Compound 6]" reading_unit=µM recorded_measurement=100
molecule="CC(=O)Nc1ccc(/C=N/Nc2nc(N3CCOCC3)nc(N3CCOCC3)n2)cc1 [Compound 2]" reading_unit=µM recorded_measurement=134
molecule="Oc1ccccc1/C=N/Nc1nc(Nc2ccc(F)cc2)nc(Nc2ccc(F)cc2)n1 [Compound 7]" reading_unit=µM recorded_measurement=7

Lookup result for Cc1cccc(/C=N/Nc2nc(N3CCOCC3)nc(N3CCOCC3)n2)c1 [Compound 3] ; measured CC50 at 48 h: 250

Lookup result for Oc1ccccc1/C=N/Nc1nc(Nc2ccc(F)cc2)nc(N2CCOCC2)n1 [Compound 4] ; measured CC50 at 48 h: 11

Lookup result for CC(=O)Nc1ccc(/C=N/Nc2nc(Nc3ccc(F)cc3)nc(N3CCOCC3)n2)cc1 [Compound 5] ; measured CC50 at 48 h: 27

Lookup result for Oc1ccccc1/C=N/Nc1nc(N2CCOCC2)nc(N2CCOCC2)n1 [Compound 1] ; measured CC50 at 48 h: 30

====

assay: Cytotoxicity assay (CellTiter Glo) on hepatocarcinoma cells; assay type: cell-based; conditions: human, Huh7 hepatocarcinoma cells; triazines 1-9; Huh7 hepatocarcinoma; read-out 48 h
experimental endpoint: CC50 at 48 h (µM)
Your answer is read as µM, so omit the unit and give the number.

compound="Cc1cccc(/C=N/Nc2nc(Nc3ccc(F)cc3)nc(N3CCOCC3)n2)c1 [Compound 6]" experimental_endpoint="CC50 at 48 h" recorded_measurement=47

Lookup result for Oc1ccccc1/C=N/Nc1nc(Nc2ccc(F)cc2)nc(Nc2ccc(F)cc2)n1 [Compound 7] ; measured CC50 at 48 h: 2

Lookup result for Cc1cccc(/C=N/Nc2nc(N3CCOCC3)nc(N3CCOCC3)n2)c1 [Compound 3] ; measured CC50 at 48 h: 45

Lookup result for CC(=O)Nc1ccc(/C=N/Nc2nc(Nc3ccc(F)cc3)nc(N3CCOCC3)n2)cc1 [Compound 5] ; measured CC50 at 48 h: 45

Lookup result for Oc1ccccc1/C=N/Nc1nc(Nc2ccc(F)cc2)nc(N2CCOCC2)n1 [Compound 4] ; measured CC50 at 48 h: 9

====

Reported CC50 at 48 h values for the following compounds.
assay: Cytotoxicity assay (CellTiter Glo) on lymphoma cells; conditions: human
Your answer is read as µM, so omit the unit and give the number.

compound=Oc1ccccc1/C=N/Nc1nc(Nc2ccc(F)cc2)nc(N2CCOCC2)n1 recorded_measurement=2
compound="Oc1ccccc1/C=N/Nc1cc(Nc2ccc(F)cc2)nc(N2CCOCC2)c1 [Compound 38a]" recorded_measurement=37
compound=CC(=O)Nc1ccc(/C=N/Nc2nc(Nc3ccc(F)cc3)nc(N3CCOCC3)n2)cc1 recorded_measurement=30
compound="Cc1cccc(/C=N/Nc2cc(Nc3ccc(F)cc3)nc(N3CCOCC3)c2)c1 [Compound 38b]" recorded_measurement=18
compound="Oc1ccccc1/C=N/Nc1cc(N2CCOCC2)nc(N2CCOCC2)c1 [Compound 27a]" recorded_measurement=76
compound="Cc1cccc(/C=N/Nc2cc(Nc3ccc(F)cc3)nc(Nc3ccc(F)cc3)c2)c1 [Compound 33b]" recorded_measurement=23
compound="Cc1cccc(/C=N/Nc2cc(N3CCOCC3)nc(N3CCOCC3)c2)c1 [Compound 27b]" recorded_measurement=50
compound="Oc1ccccc1/C=N/Nc1cc(Nc2ccc(F)cc2)nc(N2CCOCC2)n1 [Compound 21a]" recorded_measurement=11

Now take the following compound into account.
Lookup result for Cc1cccc(/C=N/Nc2nc(N3CCOCC3)nc(N3CCOCC3)n2)c1 ; measured CC50 at 48 h: 74

====

Reported log10 CC50 at 48 h values for the following compounds.
test: Cytotoxicity assay (CellTiter Glo) on colon epithelial carcinoma cells; conditions: human, Caco-2
// do not treat as linear: log10 of CC50 at 48 h, unit µM

compound=Cc1cccc(/C=N/Nc2nc(Nc3ccc(F)cc3)nc(N3CCOCC3)n2)c1 recorded_measurement=1.34
compound="Oc1ccccc1/C=N/Nc1cc(N2CCOCC2)nc(N2CCOCC2)n1 [Compound 14a]" recorded_measurement=1.92
compound=Cc1cccc(/C=N/Nc2nc(N3CCOCC3)nc(N3CCOCC3)n2)c1 recorded_measurement=2.26
compound="Oc1ccccc1/C=N/Nc1cc(Nc2ccc(F)cc2)nc(Nc2ccc(F)cc2)c1 [Compound 33a]" recorded_measurement=1.08
compound="Oc1ccccc1/C=N/Nc1cc(Nc2ccc(F)cc2)nc(N2CCOCC2)c1 [Compound 38a]" recorded_measurement=1.28
compound="Cc1cccc(/C=N/Nc2cc(Nc3ccc(F)cc3)nc(Nc3ccc(F)cc3)n2)c1 [Compound 19b]" recorded_measurement=0.60

Lookup result for CC(=O)Nc1ccc(/C=N/Nc2nc(Nc3ccc(F)cc3)nc(N3CCOCC3)n2)cc1 ; measured log10 CC50 at 48 h: 1.85

Lookup result for Oc1ccccc1/C=N/Nc1nc(Nc2ccc(F)cc2)nc(Nc2ccc(F)cc2)n1 ; measured log10 CC50 at 48 h: -0.10

Lookup result for Oc1ccccc1/C=N/Nc1cc(Nc2ccc(F)cc2)nc(Nc2ccc(F)cc2)n1 [Compound 19a] ; measured log10 CC50 at 48 h: 0.30

Lookup result for Cc1cccc(/C=N/Nc2cc(Nc3ccc(F)cc3)nc(N3CCOCC3)c2)c1 [Compound 38b] ; measured log10 CC50 at 48 h: 0.90

Lookup result for Oc1ccccc1/C=N/Nc1cc(N2CCOCC2)nc(N2CCOCC2)c1 [Compound 27a] ; measured log10 CC50 at 48 h: 1.46

Lookup result for Cc1cccc(/C=N/Nc2cc(N3CCOCC3)nc(N3CCOCC3)c2)c1 [Compound 27b] ; measured log10 CC50 at 48 h: 1.48

Lookup result for Oc1ccccc1/C=N/Nc1cc(Nc2ccc(F)cc2)nc(N2CCOCC2)n1 [Compound 21a] ; measured log10 CC50 at 48 h: 0.30

Lookup result for Cc1cccc(/C=N/Nc2nc(Nc3ccc(F)cc3)nc(Nc3ccc(F)cc3)n2)c1 ; measured log10 CC50 at 48 h: 2.30

Lookup result for Cc1cccc(/C=N/Nc2cc(N3CCOCC3)nc(N3CCOCC3)n2)c1 [Compound 14b] ; measured log10 CC50 at 48 h: 1.04

====

Reported Papp at 5 h, 0.5 mM values for the following molecules.
experiment: Parallel artificial membrane permeability assay (PAMPA); format: in vitro ADME; settings: GI, pH 7.4, 5 h, RT
Your answer is read as nm/s, so omit the unit and give the number.

Illustrative cases are given below, each with its answer.
molecule="Cc1cccc(/C=N/Nc2cc(Nc3ccc(F)cc3)nc(N3CCOCC3)c2)c1 [Compound 38b]" recorded_measurement=63.5
molecule="Cc1cccc(/C=N/Nc2cc(Nc3ccc(F)cc3)nc(Nc3ccc(F)cc3)c2)c1 [Compound 33b]" recorded_measurement=13.8
molecule="Cc1cccc(/C=N/Nc2cc(Nc3ccc(F)cc3)nc(Nc3ccc(F)cc3)n2)c1 [Compound 19b]" recorded_measurement=56.4
molecule="Oc1ccccc1/C=N/Nc1cc(Nc2ccc(F)cc2)nc(N2CCOCC2)n1 [Compound 21a]" recorded_measurement=48

Now take the following molecule into account.
Lookup result for Oc1ccccc1/C=N/Nc1cc(Nc2ccc(F)cc2)nc(Nc2ccc(F)cc2)n1 [Compound 19a] ; measured Papp at 5 h, 0.5 mM: 35.9
